Assignment: determine reported Affinity for the given binders.
Target: tumor necrosis factor alpha (TNFα) (human, UniProt P01375 77-233)
Sequence (P01375 77-233 limits assumed): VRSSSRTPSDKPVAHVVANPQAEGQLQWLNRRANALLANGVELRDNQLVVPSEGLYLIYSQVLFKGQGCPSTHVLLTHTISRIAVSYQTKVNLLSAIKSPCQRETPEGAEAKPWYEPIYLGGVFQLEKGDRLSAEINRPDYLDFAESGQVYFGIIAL
Experiment: affinity by IC50 ELISA (so named in paragraph 380)
Expressed in nM, but write only the number.

Field Affinity (entry MAb 2006 (antibody, V domains shown, IgG1/kappa, CHO; also called H1831/L459) VH: EVQLVESGGGLIQPGGSLRLSCAVSGLNVSRDYMSWVRQAPGKGLEWISVIYRGGATHYADSVKGRFTISRDTSKNTVFLQMSRLKVADTAVYYCARNYYGSTLDYWGQGTLVTVSS VL: EIVLTQSPVTLSVPPGERASLSCRASQNIYTAVAWYQQKPGQAPRLLIYNASTRATGIPARFSGGGSGTDYTLTISSLESEDFAVYHCQQWHSWPLTFGGGTKLEIK ) reads 0.04

Field Affinity (entry MAb 1988 (antibody, V domains shown, IgG1/kappa, CHO; also called H1813/L459) VH: EVQLVESGGGLIQPGGSLRLSCAVSGLNVSRDYMSWVRQAPGKGLEWISVIYRIGATMYADSVKGRFTISRDTSKNTVFLQMSRLKVADTAVYYCARNYYGSTLDYWGQGTLVTVSS VL: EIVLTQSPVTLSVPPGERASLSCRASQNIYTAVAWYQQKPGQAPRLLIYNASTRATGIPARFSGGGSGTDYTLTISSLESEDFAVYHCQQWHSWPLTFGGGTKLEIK ) reads 0.04

Field Affinity (entry MAb 1131 (antibody, V domains shown, IgG1/kappa, CHO; also called H1518/L332) VH: EVQLLESGGGLIQPGGSLRLSCAASGFTVSSNYMSWVRQAPGKGLEWVSVIYSGGRTYYADSVKGRFTISRDSSKNTLYLQMNSLRAEDTAVYYCARNYYGSTHDYWGQGTLVTVSS VL: EIVLTQSPVTLSVPPGERASLSCRASQNIYTAVAWYQQKPGQAPRLLIYGASTRATGIPARFSGGGSGTDYTLTISSLESEDFAVYHCQQWHSWPLTFGGGTKLEIK ) reads 0.13
